assayed-system: flag-tagged HIF1α (AA 786-826) / His6-tagged p300 (AA 323-423) complex (Homo sapiens, UniProt Q09472)
Construct: His6-tagged p300 (AA 323-423); made in house; host or cells: E. coli (pETDuet vector)
measurement-protocol: HIF1α p300 displacement assay (TR FRET, +CHAPS)
Type: binding
cond: read-out: IC50 (nM) (HIF1α_p300 Displacement + CHAPS)
Bridge positions count the residues as written; N and C are the ends. Square brackets hold non-standard residues; d marks the D form. Peptide text beside a SMILES is read from it. S5 = C=CCCC[C@](C)(N)C(=O)O; Nle = CCCC[C@H](N)C(=O)O
measurement-label: IC50

molecule	IC50
CCCC[C@H](NC(=O)[C@H](Cc1ccccc1)NC(=O)[C@@H](NC(=O)[C@H](CCC(=O)O)NC(=O)[C@H](CCC(=O)O)NC(=O)[C@H](CC(=O)O)NC(C)=O)C(C)C)C(=O)N[C@@]1(C)CCCC=CCCC[C@@](C)(C(=O)N[C@@H](CCCC)C(=O)N[C@@H](C)C(=O)N[C@@H](CC(C)C)C(=O)N[C@@H](CC(C)C)C(N)=O)NC(=O)[C@H]([C@@H](C)CC)NC(=O)[C@H](C(C)C)NC(=O)[C@H](CC(C)C)NC1=O [SP-244] (Ac-DEEVF[Nle][S5]LVI[S5][Nle]ALL-NH2; staple 7-11)	> 700 nM

For CCCC[C@@H]1NC(=O)[C@H](CC(C)C)NC(=O)[C@H](C(C)C)NC(=O)[C@@](C)(NC(=O)[C@H](CCC(=O)O)NC(=O)[C@H](CC(=O)O)NC(=O)[C@@H](NC(=O)[C@H](Cc2ccccc2)NC(C)=O)[C@@H](C)CC)CCCC=CCCC[C@@](C)(C(=O)N[C@@H](CC(C)C)C(=O)N[C@H](C(=O)N[C@H](C(=O)N[C@@H](CCC(=O)O)C(=O)N[C@@H](C)C(=O)N[C@@H](C)C(=O)N[C@@H](CC(C)C)C(N)=O)[C@@H](C)CC)C(C)C)NC1=O [SP-145] (Ac-FIDE[S5]VL[Nle][S5]LVIEAAL-NH2; staple 5-9) , what is its reported IC50?
200 to 400 nM

----------
assayed-system: flag-tagged HIF1α (AA 786-826) / His6-tagged p300 (AA 323-423) complex (Homo sapiens)
Construct: His6-tagged p300 (AA 323-423); made in house; host or cells: E. coli (pETDuet vector)
measurement-protocol: HIF1α p300 displacement assay (TR FRET, +CHAPS)
Format: binding
cond: read-out: IC50 (nM) (HIF1α_p300 Displacement + CHAPS)
Bridge positions count the residues as written; N and C are the ends. Square brackets hold non-standard residues; d marks the D form. Peptide text beside a SMILES is read from it. R8 = C=CCCCCCC[C@@](C)(N)C(=O)O; S5 = C=CCCC[C@](C)(N)C(=O)O; Nle = CCCC[C@H](N)C(=O)O
Listing of recorded IC50 by entry.

Example entries begin here.
molecule	IC50
CC[C@H](C)[C@H](NC(=O)[C@H](Cc1ccccc1)NC(C)=O)C(=O)N[C@@H](CC(=O)O)C(=O)N[C@@H](CCC(=O)O)C(=O)N[C@@]1(C)CCCC=CCCC[C@@](C)(C(=O)N[C@@H](CC(C)C)C(=O)N[C@H](C(=O)N[C@H](C(=O)N[C@@H](CCC(=O)O)C(=O)N[C@@H](CCSC)C(=O)N[C@@H](C)C(=O)N[C@@H](CC(C)C)C(N)=O)[C@@H](C)CC)C(C)C)NC(=O)[C@H](CCSC)NC(=O)[C@H](CC(C)C)NC(=O)[C@H](C(C)C)NC1=O [SP-110] (Ac-FIDE[S5]VLM[S5]LVIEMAL-NH2; staple 5-9)	400 to 700 nM
CCCC[C@H](NC(=O)[C@H](Cc1ccccc1)NC(=O)[C@@H](NC(=O)[C@H](C)NC(=O)[C@H](CCC(N)=O)NC(=O)[C@H](CC(=O)O)NC(=O)[C@@H](NC(=O)[C@H](Cc1ccccc1)NC(C)=O)[C@@H](C)CC)C(C)C)C(=O)N[C@@]1(C)CCCC=CCCC[C@@](C)(C(=O)N[C@@H](CO)C(=O)N[C@@H](C)C(=O)N[C@@H](CC(C)C)C(=O)N[C@@H](CC(C)C)C(N)=O)NC(=O)[C@H]([C@@H](C)CC)NC(=O)[C@H](C(C)C)NC(=O)[C@H](CC(C)C)NC1=O [SP-257] (Ac-FIDQAVF[Nle][S5]LVI[S5]SALL-NH2; staple 9-13)	> 700 nM
CSCC[C@@H]1NC(=O)[C@H](CC(C)C)NC(=O)[C@H](C(C)C)NC(=O)[C@](C)(NC(=O)[C@H](CCC(=O)O)NC(=O)[C@@H](NC(=O)[C@H](CC(C)C)NC(C)=O)[C@@H](C)O)CCCCCCC=CCCC[C@@](C)(C(=O)N[C@@H](CO)C(=O)N[C@@H](C)C(=O)N[C@@H](C)C(N)=O)NC(=O)[C@H](C(C)C)NC(=O)[C@H](CC(C)C)NC(=O)[C@H](CO)NC1=O [SP-181] (Ac-LTE[R8]VLMSLV[S5]SAA-NH2; staple 4-11)	> 700 nM

Now, please, on to the next molecule.
State the recorded IC50 for this entry: CCCC[C@H](NC(=O)[C@H](CCC(=O)O)NC(=O)[C@@H](NC(=O)[C@@H](NC(=O)[C@H](CC(C)C)NC(=O)[C@]1(C)CCCC=CCCC[C@](C)(NC(=O)[C@H](C)NC(=O)[C@H](CC(=O)O)NC(=O)[C@@H](NC(=O)[C@H](Cc2ccccc2)NC(C)=O)[C@@H](C)CC)C(=O)N[C@@H]([C@@H](C)O)C(=O)N[C@@H](CC(C)C)C(=O)N[C@@H](CCCC)C(=O)N1)C(C)C)[C@@H](C)CC)C(=O)N[C@@H](C)C(=O)N[C@@H](CC(C)C)C(N)=O [SP-149] (Ac-FIDA[S5]TL[Nle][S5]LVIE[Nle]AL-NH2; staple 5-9)
400 to 700 nM
